The reported numbers originate from ChEMBL document CHEMBL4507298.

assay-target: Ribosyldihydronicotinamide dehydrogenase [quinone] (Homo sapiens, UniProt P16083)
Sequence (P16083 whole entry): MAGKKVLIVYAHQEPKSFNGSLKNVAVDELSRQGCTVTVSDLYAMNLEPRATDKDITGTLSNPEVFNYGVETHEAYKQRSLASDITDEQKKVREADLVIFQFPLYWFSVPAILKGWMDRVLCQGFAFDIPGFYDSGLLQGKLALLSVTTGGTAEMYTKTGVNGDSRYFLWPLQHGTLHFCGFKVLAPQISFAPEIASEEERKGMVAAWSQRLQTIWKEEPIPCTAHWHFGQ
measure: pIC50
Value format note: pIC50 is -log10 of concentration (mol/L); just state the number.

Find pIC50 (Ribosyldihydronicotinamide dehydrogenase [quinone] (Homo sapiens, UniProt P16083)) for the entry `COc1ccc2cc(OCC3(C(=O)O)CN(C(=O)c4ccc(F)cc4)C3)ccc2c1`
6.28

* * *

assay-target: Voltage-gated L-type calcium channel (DHP site) (Homo sapiens, UniProt O60840+Q01668+Q13698+Q13936)
assay-details: Ca2+ channel (L, DHP site) CEREP ligand profiling
Format: protein assay
setup-conditions: compound concentration 10 uM
measure: inhibition at 10 µM

Item under review: `COc1ccc2cc(OCC3(C(=O)O)CN(C(=O)c4ccc(F)cc4)C3)ccc2c1` . Reported inhibition at 10 µM?
-3% (not active)
